- assay.remarks: Thermodynamic (equilibrium) solubility of the compound measured after 3 days agitation in pH 7 buffer by LC-MS/MS analysis
- Type: physicochemical
- experimental.conditions: time 3 day, read-out: Therm_solubility
metric.name: solubility thermodynamic at 72 h (µM)
Give the value, in units of µM, as a plain number.

entry.smiles	solubility thermodynamic at 72 h (µM)
C[C@@H]1[C@@H](C)C/C=C(\F)[C@H](OCCN2CCOCC2)[C@@H]2OCC[C@H]2CN2C[C@@]3(CCCc4cc(Cl)ccc43)COc3ccc(cc32)C(=O)NS1(=O)=O	1.2

Now take the following compound into account.
Return solubility thermodynamic at 72 h (reported value) for this compound: "COc1nn(C)cc1C(=O)N[S@@]1(=O)=NC(=O)c2ccc3c(c2)N(C[C@@H]2CC[C@H]2[C@@H](OC)/C=C/C[C@H](C)C1)C[C@@]1(CCCc2cc(Cl)ccc21)CO3"
118

###

- assay.remarks: Cardiotoxicity risk in human iPSC-CM assessed as calcium transients at 1 uM by CTCM assay
- Format: toxicity, cell-based
metric.name: Activity

Check out these entries, answers already filled in.
entry.smiles	Activity
COc1nn(C)cc1C(=O)N[S@@]1(=O)=NC(=O)c2ccc3c(c2)N(C[C@@H]2CCO[C@H]2[C@@](CN2CCN4CCOC[C@@H]4C2)(OC)/C(F)=C/C[C@H](C)C1)C[C@@]1(CCCc2cc(Cl)ccc21)CO3	Non-Toxic
C[C@@H]1[C@@H](C)C/C=C(\F)[C@H](OCCN2CCOCC2)[C@@H]2OCC[C@H]2CN2C[C@@]3(CCCc4cc(Cl)ccc43)COc3ccc(cc32)C(=O)NS1(=O)=O	Non-Toxic
CO[C@@]1(CN2CCN3CCOC[C@@H]3C2)/C(F)=C/C[C@H](C)[C@@H](C)S(=O)(=O)NC(=O)c2ccc3c(c2)N(C[C@@H]2CCO[C@H]21)C[C@@]1(CCCc2cc(Cl)ccc21)CO3	Non-Toxic
CO[C@H]1/C=C/C[C@H](C)[C@@H](C)S(=O)(=O)NC(=O)c2ccc3c(c2)N(C[C@@H]2CCO[C@H]21)C[C@@]1(CCCc2cc(Cl)ccc21)CO3	Non-Toxic
COc1nn(C)cc1C(=O)N[S@]1(=O)=NC(=O)c2ccc3c(c2)N(C[C@@H]2CCO[C@H]2[C@@](CN2CCN4CCOC[C@@H]4C2)(OC)/C(F)=C/C[C@H](C)C1)C[C@@]1(CCCc2cc(Cl)ccc21)CO3	Non-Toxic

Using known records, supply Activity for "CO[C@]1(CN2CCN3CCOC[C@@H]3C2)/C(F)=C/C[C@H](C)[C@@H](C)S(=O)(=O)NC(=O)c2ccc3c(c2)N(C[C@@H]2CCO[C@H]21)C[C@@]1(CCCc2cc(Cl)ccc21)CO3"
Non-Toxic

Let me know recorded Activity for "COc1nn(C)cc1C(=O)N[S@@]1(=O)=NC(=O)c2ccc3c(c2)N(C[C@@H]2CCO[C@H]2[C@@H](OC)/C(F)=C/C[C@H](C)C1)C[C@@]1(CCCc2cc(Cl)ccc21)CO3" , thanks.
Non-Toxic

Determine from records and report Activity for "C[C@@H]1[C@@H](C)C/C=C(\F)[C@@](O)(CC(=O)N(C)C)[C@@H]2OCC[C@H]2CN2C[C@@]3(CCCc4cc(Cl)ccc43)COc3ccc(cc32)C(=O)NS1(=O)=O"
Non-Toxic

Hello, please tell me recorded Activity for this one: "COc1nn(C)cc1C(=O)N[S@]1(=O)=NC(=O)c2ccc3c(c2)N(C[C@@H]2CCO[C@H]2[C@H](OC)/C(F)=C/C[C@H](C)C1)C[C@@]1(CCCc2cc(Cl)ccc21)CO3"
Non-Toxic

# return recorded Activity for input "COc1nn(C)cc1C(=O)N[S@]1(=O)=NC(=O)c2ccc3c(c2)N(C[C@@H]2CCO[C@H]2[C@@H](OC)/C(F)=C/C[C@H](C)C1)C[C@@]1(CCCc2cc(Cl)ccc21)CO3"
Non-Toxic

Value source: ChEMBL document CHEMBL5380869
